Data provenance is ChEMBL document CHEMBL4513216.

# Assay Summary: Toxicity liver stage against HepG2, at 10uM
# Assay type: cell-based
# Set-up: test concentration 10 uM, cell line HepG2-A16-CD81EGFP
# Experimental Conditions: human, HepG2-A16-CD81EGFP cells; read-out: INHIBITION
Metric Name: cytotoxicity at 10 µM (%)
API: value field is a number in %; no unit string.

Examples with their reported cytotoxicity at 10 µM follow.
>  <Compound>
CC(C)Cc1cc(NC(=O)c2ccccc2)n(C)n1

>  <cytotoxicity at 10 µM, %>
-3.37

$$$$
>  <Compound>
CCOCCOC(C)C(=O)Nc1ccc2[nH]c(C)cc2c1 (centres undefined)

>  <cytotoxicity at 10 µM, %>
5.35

$$$$
>  <Compound>
OC(COCc1ccccc1)CSc1nnc(C2CC2)n1C1CC1 (centres undefined)

>  <cytotoxicity at 10 µM, %>
4.93

$$$$
>  <Compound>
Cc1nc(CN2CC[C@@H]3[C@@H](CCC(=O)N3CCc3c[nH]cn3)C2)co1

>  <cytotoxicity at 10 µM, %>
2.62

$$$$
>  <Compound>
NC(=O)CC1CCN(C(=O)c2csc(-c3ccccc3F)n2)CC1

>  <cytotoxicity at 10 µM, %>
-1.29

$$$$

Request the reported cytotoxicity at 10 µM associated with COCc1ccccc1CNC(=O)CNc1cccc(Cl)c1OC
6.39

# query: cytotoxicity at 10 µM of entry CCOc1ccc2nc(NC(=O)c3c(C(=O)O)cnn3C)sc2c1
6.47

Look up cytotoxicity at 10 µM: Cc1cnccc1N1CCCN(C(=O)CCCn2ccnc2C)CC1
-5.39

Given the compound O=C(CCc1nnc2ccccn2c1=O)NCc1cccnc1 , what is its reported cytotoxicity at 10 µM?
-1.74
